meta.source: ChEMBL document CHEMBL4715934

Target Desc: Cytochrome P450 2C9 (Homo sapiens)
Sequence (P11712 whole entry): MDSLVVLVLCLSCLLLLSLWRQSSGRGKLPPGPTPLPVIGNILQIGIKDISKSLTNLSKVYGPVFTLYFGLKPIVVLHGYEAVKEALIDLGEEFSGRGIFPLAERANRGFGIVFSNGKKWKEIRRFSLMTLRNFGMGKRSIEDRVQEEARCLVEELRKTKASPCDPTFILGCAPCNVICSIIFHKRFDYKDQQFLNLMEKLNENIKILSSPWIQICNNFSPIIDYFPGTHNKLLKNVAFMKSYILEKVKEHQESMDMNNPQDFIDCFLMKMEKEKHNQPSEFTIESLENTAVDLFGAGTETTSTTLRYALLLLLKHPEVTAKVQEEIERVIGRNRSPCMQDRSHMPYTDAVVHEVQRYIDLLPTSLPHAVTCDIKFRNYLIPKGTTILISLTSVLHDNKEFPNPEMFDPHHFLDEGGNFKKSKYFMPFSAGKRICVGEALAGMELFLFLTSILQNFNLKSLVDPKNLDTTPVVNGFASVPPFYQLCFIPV
Assay Explanation: Inhibition of recombinant human CYP2C9
Measured Metric: pIC50
Please report pIC50 as the negative decimal logarithm of the molar concentration, giving only the number.

Request the reported pIC50 associated with CCC(c1nc2ncc(Cl)cc2[nH]1)[C@H]1CC[C@@H](c2ccnc3ccc(C(F)(F)F)cc32)CC1 (stereo partly specified)
6.62

====

Target Desc: Cytochrome P450 2C8 (Homo sapiens, UniProt P10632)
Sequence (P10632 whole entry): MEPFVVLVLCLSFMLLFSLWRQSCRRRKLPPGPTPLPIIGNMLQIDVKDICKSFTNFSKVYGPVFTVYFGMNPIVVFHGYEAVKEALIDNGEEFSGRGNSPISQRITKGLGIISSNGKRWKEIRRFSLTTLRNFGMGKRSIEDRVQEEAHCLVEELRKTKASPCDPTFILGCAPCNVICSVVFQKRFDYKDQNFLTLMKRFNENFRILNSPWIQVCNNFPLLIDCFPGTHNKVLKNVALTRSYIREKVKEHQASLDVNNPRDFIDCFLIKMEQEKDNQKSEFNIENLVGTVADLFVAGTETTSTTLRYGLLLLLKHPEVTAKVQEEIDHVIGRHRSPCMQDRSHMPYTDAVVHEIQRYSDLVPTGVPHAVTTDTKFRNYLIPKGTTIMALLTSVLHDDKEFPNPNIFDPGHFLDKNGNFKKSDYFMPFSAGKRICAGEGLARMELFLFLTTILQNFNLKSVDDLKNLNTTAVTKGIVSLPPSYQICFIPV
Assay Explanation: Inhibition of recombinant human CYP2C8
Measured Metric: pIC50
Please report pIC50 as the negative decimal logarithm of the molar concentration, giving only the number.

Request the reported pIC50 associated with CCC(c1nc2ncc(Cl)cc2[nH]1)[C@H]1CC[C@@H](c2ccnc3ccc(C(F)(F)F)cc32)CC1 (stereo partly specified)
5.83
